IC50 reference
Tested Target: human TLR7 (Homo sapiens)
Method: TLR7 inhibition reporter assay (HEK-Blue cells, SEAP reporter, gardiquimod stimulation)
Condition Summary: HEK-Blue cells overexpressing human TLR7, SEAP reporter, gardiquimod 7.5 μM
Report the value in nM with no unit label.

>>> endpoint_value("Cc1cc(-c2[nH]nc(-c3nc4c(s3)CN(C(C)C)CC4)c2C(C)C)cn2ncnc12")
67.9
>>> endpoint_value("Cc1cc(-c2[nH]nc(C(=O)N[C@H]3CCCN(C)C3)c2C(C)C)cn2ncnc12")
2.6
>>> endpoint_value("Cc1cc(-c2[nH]nc(C3CCC(N4CCN(C)CC4)CC3)c2C(C)C)cn2ncnc12 (single isomer, unassigned) [Example 286]")
25.6
>>> endpoint_value("COc1cc(-c2[nH]nc(-c3ccc(C4CCN(CC5CC5)CC4)cn3)c2C(C)C)cn2ncnc12")
11.7
>>> endpoint_value("Cc1cc(-c2[nH]nc(C(=O)N[C@H]3CC[C@H](NCC4CCOC4)CC3)c2C(C)C)cn2ncnc12 (some centres unmarked)")
1.38
>>> endpoint_value("Cc1cc(-c2[nH]nc(C(=O)NC3CCN(CCC(C)(C)C)CC3)c2C(C)C)cn2ncnc12")
0.89

Notebook entry, human TLR7 (Homo sapiens) assay: IC50 of COc1cc(-c2[nH]nc(-c3cnc(C4CCNCC4)cn3)c2C(C)C)cn2ncnc12 = ?
23.4

====

Tested Target: human TLR7 (Homo sapiens, UniProt Q9NYK1)
Sequence (Q9NYK1 27-1049): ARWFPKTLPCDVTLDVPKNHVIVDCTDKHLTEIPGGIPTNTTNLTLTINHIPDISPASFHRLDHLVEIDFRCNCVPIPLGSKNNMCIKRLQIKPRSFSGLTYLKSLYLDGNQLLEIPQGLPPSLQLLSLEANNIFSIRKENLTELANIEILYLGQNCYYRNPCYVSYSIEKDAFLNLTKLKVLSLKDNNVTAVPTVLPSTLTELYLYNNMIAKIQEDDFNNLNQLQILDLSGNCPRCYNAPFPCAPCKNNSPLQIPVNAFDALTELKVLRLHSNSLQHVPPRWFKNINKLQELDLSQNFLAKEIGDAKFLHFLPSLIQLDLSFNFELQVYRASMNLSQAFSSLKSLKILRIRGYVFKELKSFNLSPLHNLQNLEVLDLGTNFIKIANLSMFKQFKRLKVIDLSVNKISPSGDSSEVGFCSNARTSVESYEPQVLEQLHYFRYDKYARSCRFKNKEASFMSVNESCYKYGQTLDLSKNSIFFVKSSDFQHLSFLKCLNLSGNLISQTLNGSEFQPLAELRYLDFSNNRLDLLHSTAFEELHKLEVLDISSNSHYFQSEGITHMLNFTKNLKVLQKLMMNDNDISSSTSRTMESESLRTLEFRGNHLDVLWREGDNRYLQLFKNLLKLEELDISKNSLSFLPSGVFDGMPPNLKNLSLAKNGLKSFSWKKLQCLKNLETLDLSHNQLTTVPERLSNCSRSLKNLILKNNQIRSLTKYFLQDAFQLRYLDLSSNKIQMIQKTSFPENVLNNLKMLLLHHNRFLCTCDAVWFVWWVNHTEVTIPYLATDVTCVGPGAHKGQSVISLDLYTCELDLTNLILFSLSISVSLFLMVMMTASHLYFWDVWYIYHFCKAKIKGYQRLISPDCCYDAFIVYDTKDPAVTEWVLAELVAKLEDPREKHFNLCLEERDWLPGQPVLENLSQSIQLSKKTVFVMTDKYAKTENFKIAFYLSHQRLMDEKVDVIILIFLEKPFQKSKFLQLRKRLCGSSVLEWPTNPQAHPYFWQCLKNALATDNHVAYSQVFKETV
Method: TLR7 inhibition reporter assay (HEK-Blue cells, SEAP reporter, gardiquimod stimulation)
Condition Summary: HEK-Blue cells overexpressing human TLR7, SEAP reporter, gardiquimod 7.5 μM
IC50 reference
Report the value in nM with no unit label.

>>> endpoint_value("Cc1cc(-c2[nH]nc(C(=O)NC3CCC(NCC(C)(C)C)CC3)c2C(C)C)cn2ncnc12 (stereo not shown) [Example 131]")
7.48

Entry under review: CCc1c(C(=O)NC2CCN(C(C)C)CC2)n[nH]c1-c1cc(C)c2ncnn2c1 . Reported IC50?
1.74

====

pIC50 reference
Tested Target: human TLR9 (Homo sapiens)
Sequence (Q9NR96 26-1032): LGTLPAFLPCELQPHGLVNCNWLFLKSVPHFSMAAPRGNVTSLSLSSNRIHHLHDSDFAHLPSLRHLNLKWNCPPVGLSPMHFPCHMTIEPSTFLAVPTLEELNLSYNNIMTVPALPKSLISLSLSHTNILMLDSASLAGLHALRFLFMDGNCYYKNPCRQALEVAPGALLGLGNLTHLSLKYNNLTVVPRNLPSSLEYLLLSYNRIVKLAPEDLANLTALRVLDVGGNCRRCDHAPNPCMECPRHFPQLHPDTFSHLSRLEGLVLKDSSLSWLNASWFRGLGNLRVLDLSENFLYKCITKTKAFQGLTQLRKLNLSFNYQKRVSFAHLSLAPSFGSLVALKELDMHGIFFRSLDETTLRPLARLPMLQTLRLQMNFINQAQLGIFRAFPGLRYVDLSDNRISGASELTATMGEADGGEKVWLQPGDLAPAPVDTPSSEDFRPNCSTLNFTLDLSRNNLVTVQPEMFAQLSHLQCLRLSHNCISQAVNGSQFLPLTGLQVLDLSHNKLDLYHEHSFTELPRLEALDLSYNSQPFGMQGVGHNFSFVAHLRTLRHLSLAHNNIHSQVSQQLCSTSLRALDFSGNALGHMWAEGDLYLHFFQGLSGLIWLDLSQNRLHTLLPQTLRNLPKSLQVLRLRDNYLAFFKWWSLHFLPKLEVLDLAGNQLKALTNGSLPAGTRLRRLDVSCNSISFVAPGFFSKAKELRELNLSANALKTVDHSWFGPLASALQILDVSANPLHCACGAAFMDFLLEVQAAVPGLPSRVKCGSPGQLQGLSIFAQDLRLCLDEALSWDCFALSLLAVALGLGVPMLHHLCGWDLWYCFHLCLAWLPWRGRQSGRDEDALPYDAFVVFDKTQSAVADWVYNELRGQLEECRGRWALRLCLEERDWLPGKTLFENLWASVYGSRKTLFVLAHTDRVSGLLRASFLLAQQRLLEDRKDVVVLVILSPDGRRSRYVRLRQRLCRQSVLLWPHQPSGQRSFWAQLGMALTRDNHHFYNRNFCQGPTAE
Method: TLR9 inhibition reporter assay (HEK-Blue cells, SEAP reporter, ODN2006 stimulation)
Condition Summary: HEK-Blue cells overexpressing human TLR9, SEAP reporter, ODN2006 5 nM
pIC50 here: minus log base 10 of the concentration, concentration in moles per litre.

>>> endpoint_value("Cc1cc(-c2[nH]nc(C(=O)NC3CCN(CC4CCOC4)CC3)c2C(C)C)cn2ncnc12 (centres unmarked)")
5.14

With those in mind, consider the next compound.
Entry under review: Cc1cc(-c2[nH]nc(C3CCC(NCC4(C)COC4)CC3)c2C(C)C)cn2ncnc12 (single isomer, unassigned) [Example 280] . Reported pIC50?
5.30

====

Tested Target: human TLR7 (Homo sapiens, UniProt Q9NYK1)
Sequence (Q9NYK1 27-1049): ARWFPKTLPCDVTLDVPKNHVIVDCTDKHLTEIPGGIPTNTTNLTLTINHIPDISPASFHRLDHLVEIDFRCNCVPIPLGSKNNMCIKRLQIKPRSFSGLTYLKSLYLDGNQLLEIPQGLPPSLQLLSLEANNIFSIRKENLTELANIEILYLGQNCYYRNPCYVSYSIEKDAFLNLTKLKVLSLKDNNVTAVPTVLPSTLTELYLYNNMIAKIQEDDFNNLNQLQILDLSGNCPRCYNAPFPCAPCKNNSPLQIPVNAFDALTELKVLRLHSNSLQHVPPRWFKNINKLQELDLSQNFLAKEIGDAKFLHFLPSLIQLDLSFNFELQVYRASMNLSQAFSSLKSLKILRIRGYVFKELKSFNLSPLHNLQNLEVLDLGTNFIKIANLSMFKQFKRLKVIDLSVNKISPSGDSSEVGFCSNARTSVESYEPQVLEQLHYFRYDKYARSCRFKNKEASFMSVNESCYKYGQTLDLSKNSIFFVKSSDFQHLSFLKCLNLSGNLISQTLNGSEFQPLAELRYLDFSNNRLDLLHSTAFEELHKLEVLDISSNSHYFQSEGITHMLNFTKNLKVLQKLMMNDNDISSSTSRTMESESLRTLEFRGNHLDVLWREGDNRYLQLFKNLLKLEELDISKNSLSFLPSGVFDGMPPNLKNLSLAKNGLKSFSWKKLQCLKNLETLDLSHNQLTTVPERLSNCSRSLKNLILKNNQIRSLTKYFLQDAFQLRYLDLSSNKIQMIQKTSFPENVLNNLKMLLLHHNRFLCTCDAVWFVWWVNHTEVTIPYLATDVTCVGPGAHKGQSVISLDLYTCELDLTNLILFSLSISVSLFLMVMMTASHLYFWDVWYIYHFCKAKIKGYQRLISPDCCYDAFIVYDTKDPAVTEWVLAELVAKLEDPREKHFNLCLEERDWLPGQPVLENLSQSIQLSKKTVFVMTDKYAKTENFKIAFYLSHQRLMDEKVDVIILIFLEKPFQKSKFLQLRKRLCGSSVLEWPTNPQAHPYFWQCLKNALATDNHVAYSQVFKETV
Method: TLR7 inhibition reporter assay (HEK-Blue cells, SEAP reporter, gardiquimod stimulation)
Condition Summary: HEK-Blue cells overexpressing human TLR7, SEAP reporter, gardiquimod 7.5 μM
Outcome Measure: pIC50
pIC50 here: minus log base 10 of the concentration, concentration in moles per litre.

// solved cases for pIC50 follow
>>> endpoint_value("Cc1ncc(CN[C@H]2CC[C@H](NC(=O)c3n[nH]c(-c4cc(C)c5ncnn5c4)c3C(C)C)CC2)cn1 [Example 104]")
8.70
>>> endpoint_value("Cc1cc(-c2[nH]nc(C(=O)N3CCCN(C)CC3)c2C(C)C)cn2ncnc12 [Example 23]")
8.90
>>> endpoint_value("COCCN(C)C1CCC(NC(=O)c2n[nH]c(-c3cc(C)c4ncnn4c3)c2C(C)C)CC1 (stereo not shown) [Example 128]")
8.92

Notebook entry, human TLR7 (Homo sapiens, UniProt Q9NYK1) assay: pIC50 of COc1cc(-c2[nH]nc(-c3ccc(C4CN(C5COC5)C4)cc3)c2C(C)C)cn2ncnc12 [Example 332] = ?
7.77

Notebook entry, human TLR7 (Homo sapiens, UniProt Q9NYK1) assay: pIC50 of CCCN1CC(c2ccc(-c3n[nH]c(-c4cc(OC)c5ncnn5c4)c3C(C)C)cc2)C1 [Example 330] = ?
8.08

Notebook entry, human TLR7 (Homo sapiens, UniProt Q9NYK1) assay: pIC50 of Cc1cc(-c2cc(C(=O)NC3CCN(C(C)C)CC3)n[nH]2)cn2ncnc12 [Example 178] = ?
8.77

Notebook entry, human TLR7 (Homo sapiens, UniProt Q9NYK1) assay: pIC50 of Cc1cc(-c2[nH]nc(-c3nc4ccc(NC(C)C)cc4s3)c2C(C)C)cn2ncnc12 [Example 258] = ?
7.44

Source of measurements: patent US20230117470A1
